Source of measurements: patent US4639433A

System: Staphylococcus epidermidis 222
Conditions: agar dilution
MIC: recorded values
Please answer using the number first and the unit second.

CCCCCCCCCCCC(=O)N(C)C(CC(C)C)C(=O)NC1C(=O)NC(CC(N)=O)C(=O)NC2C(=O)NC3C(=O)NC(C(=O)NC(C(=O)O)c4cc(O)cc(O)c4-c4cc3ccc4O)C(O)c3ccc(c(Cl)c3)Oc3cc2cc(c3OC2OC(CO)C(O)C(O)C2OC2CC(C)(N)C(O)C(C)O2)Oc2ccc(cc2Cl)C1O (stereo not shown): 8 mg/L
C=CCCCCCCCCC(=O)NC1(C)CC(OC2C(Oc3c4cc5cc3Oc3ccc(cc3Cl)C(O)C3NC(=O)C(NC(=O)C5NC(=O)C(CC(N)=O)NC(=O)C(NC(=O)C(CC(C)C)NC)C(O)c5ccc(c(Cl)c5)O4)c4ccc(O)c(c4)-c4c(O)cc(O)cc4C(C(=O)O)NC3=O)OC(CO)C(O)C2O)OC(C)C1O (stereo not shown): 0.5 mg/L
CCCCCCCC(=O)N(C)C(CC(C)C)C(=O)NC1C(=O)NC(CC(N)=O)C(=O)NC2C(=O)NC3C(=O)NC(C(=O)NC(C(=O)O)c4cc(O)cc(O)c4-c4cc3ccc4O)C(O)c3ccc(c(Cl)c3)Oc3cc2cc(c3OC2OC(CO)C(O)C(O)C2OC2CC(C)(N)C(O)C(C)O2)Oc2ccc(cc2Cl)C1O (stereo not shown): 16 mg/L
CCCCCCCC(=O)NC1(C)CC(OC2C(Oc3c4cc5cc3Oc3ccc(cc3Cl)C(O)C3NC(=O)C(NC(=O)C5NC(=O)C(CC(N)=O)NC(=O)C(NC(=O)C(CC(C)C)NC)C(O)c5ccc(c(Cl)c5)O4)c4ccc(O)c(c4)-c4c(O)cc(O)cc4C(C(=O)O)NC3=O)OC(CO)C(O)C2O)OC(C)C1O (stereo not shown): 2 mg/L
CNC(CC(C)C)C(=O)NC1C(=O)NC(CC(N)=O)C(=O)NC2C(=O)NC3C(=O)NC(C(=O)NC(C(=O)O)c4cc(O)cc(O)c4-c4cc3ccc4O)C(O)c3ccc(c(Cl)c3)Oc3cc2cc(c3OC2OC(CO)C(O)C(O)C2OC2CC(C)(NC(=O)CC(C)C)C(O)C(C)O2)Oc2ccc(cc2Cl)C1O (stereo not shown): 4 mg/L

get_value(item= CCCCCC(=O)NC1(C)CC(OC2C(Oc3c4cc5cc3Oc3ccc(cc3Cl)C(O)C3NC(=O)C(NC(=O)C5NC(=O)C(CC(N)=O)NC(=O)C(NC(=O)C(CC(C)C)NC)C(O)c5ccc(c(Cl)c5)O4)c4ccc(O)c(c4)-c4c(O)cc(O)cc4C(C(=O)O)NC3=O)OC(CO)C(O)C2O)OC(C)C1O (stereo not shown) , readout=MIC) returns 8 mg/L

get_value(item= CNC(CC(C)C)C(=O)NC1C(=O)NC(CC(N)=O)C(=O)NC2C(=O)NC3C(=O)NC(C(=O)NC(C(=O)O)c4cc(O)cc(O)c4-c4cc3ccc4O)C(O)c3ccc(c(Cl)c3)Oc3cc2cc(c3OC2OC(CO)C(O)C(O)C2OC2CC(C)(NC(=O)CCC(C)=O)C(O)C(C)O2)Oc2ccc(cc2Cl)C1O (stereo not shown) , readout=MIC) returns 4 mg/L

get_value(item= CCCCCCCCCCCC(=O)NC1(C)CC(OC2C(Oc3c4cc5cc3Oc3ccc(cc3Cl)C(O)C3NC(=O)C(NC(=O)C5NC(=O)C(CC(N)=O)NC(=O)C(NC(=O)C(CC(C)C)NC)C(O)c5ccc(c(Cl)c5)O4)c4ccc(O)c(c4)-c4c(O)cc(O)cc4C(C(=O)O)NC3=O)OC(CO)C(O)C2O)OC(C)C1O (stereo not shown) , readout=MIC) returns 0.5 mg/L

get_value(item= CCCCCCCCCC(=O)NC1(C)CC(OC2C(Oc3c4cc5cc3Oc3ccc(cc3Cl)C(O)C(NC(=O)C(CC(C)C)N(C)C(=O)CCCCCCCCC)C(=O)NC(CC(N)=O)C(=O)NC5C(=O)NC3C(=O)NC(C(=O)NC(C(=O)O)c5cc(O)cc(O)c5-c5cc3ccc5O)C(O)c3ccc(c(Cl)c3)O4)OC(CO)C(O)C2O)OC(C)C1O (stereo not shown) , readout=MIC) returns 8 mg/L

get_value(item= CCCC(=O)NC1(C)CC(OC2C(Oc3c4cc5cc3Oc3ccc(cc3Cl)C(O)C3NC(=O)C(NC(=O)C5NC(=O)C(CC(N)=O)NC(=O)C(NC(=O)C(CC(C)C)NC)C(O)c5ccc(c(Cl)c5)O4)c4ccc(O)c(c4)-c4c(O)cc(O)cc4C(C(=O)O)NC3=O)OC(CO)C(O)C2O)OC(C)C1O (stereo not shown) , readout=MIC) returns 4 mg/L

get_value(item= C=CCCCCCCCCC(=O)NC1(C)CC(OC2C(Oc3c4cc5cc3Oc3ccc(cc3Cl)C(O)C(NC(=O)C(CC(C)C)N(C)C(=O)CCCCCCCCC=C)C(=O)NC(CC(N)=O)C(=O)NC5C(=O)NC3C(=O)NC(C(=O)NC(C(=O)O)c5cc(O)cc(O)c5-c5cc3ccc5O)C(O)c3ccc(c(Cl)c3)O4)OC(CO)C(O)C2O)OC(C)C1O (stereo not shown) , readout=MIC) returns 16 mg/L

get_value(item= CCCCCCCCCC(=O)NC1(C)CC(OC2C(Oc3c4cc5cc3Oc3ccc(cc3Cl)C(O)C3NC(=O)C(NC(=O)C5NC(=O)C(CC(N)=O)NC(=O)C(NC(=O)C(CC(C)C)NC)C(O)c5ccc(c(Cl)c5)O4)c4ccc(O)c(c4)-c4c(O)cc(O)cc4C(C(=O)O)NC3=O)OC(CO)C(O)C2O)OC(C)C1O (stereo not shown) , readout=MIC) returns 1 mg/L

get_value(item= C=CCCCCCCCCC(=O)N(C)C(CC(C)C)C(=O)NC1C(=O)NC(CC(N)=O)C(=O)NC2C(=O)NC3C(=O)NC(C(=O)NC(C(=O)O)c4cc(O)cc(O)c4-c4cc3ccc4O)C(O)c3ccc(c(Cl)c3)Oc3cc2cc(c3OC2OC(CO)C(O)C(O)C2OC2CC(C)(N)C(O)C(C)O2)Oc2ccc(cc2Cl)C1O (stereo not shown) , readout=MIC) returns 8 mg/L
